Target: CCR2 (Homo sapiens, UniProt P41597)
Construct: Membranes were prepared from THP-1 cells; endogenous in cells
Sequence (P41597 1-360 isoform P41597-2): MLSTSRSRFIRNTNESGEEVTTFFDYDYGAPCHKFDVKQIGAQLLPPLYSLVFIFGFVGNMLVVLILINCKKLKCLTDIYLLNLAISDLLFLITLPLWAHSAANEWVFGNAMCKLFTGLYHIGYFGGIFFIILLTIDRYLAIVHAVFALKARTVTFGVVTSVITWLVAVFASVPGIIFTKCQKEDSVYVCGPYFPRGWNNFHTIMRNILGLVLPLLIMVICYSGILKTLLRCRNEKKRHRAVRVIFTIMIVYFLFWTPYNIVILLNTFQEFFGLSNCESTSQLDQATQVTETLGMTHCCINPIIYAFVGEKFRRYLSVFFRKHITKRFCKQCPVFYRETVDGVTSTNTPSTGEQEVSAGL
Test: CCR2 receptor membrane binding assay ([125I]MCP-1, THP-1 cell membranes, SPA beads)
Details: dissociation constant hKi; [125I]MCP-1 binding to THP-1 membranes
pKi: −log10 of the molar value.
We use 6 as the dividing line for pKi: on or above the line is Criterion met, below is Criterion not met.

> print(dat)
                                    compound                        target.system              class
 1  Cc1nc(NC[C@@H]2CCN(c3ccccc3)C2)c(C)c(C(=O)N2CCC(N3CCC(N(C)S(C)(=O)=O)CC3)CC2)n1  CCR2 (Homo sapiens, UniProt P41597)      Criterion met
 2  Cc1c(NCC2CCCC(c3cccc(F)c3)C2)ncnc1C(=O)N1CCC(N2CCC(N(C)S(C)(=O)=O)CC2)CC1 (stereo not drawn) [Example 159db]  CCR2 (Homo sapiens, UniProt P41597)      Criterion met
 3  Cc1c(NCC2CCC(C(C)C)CC2)ncnc1C(=O)N1CCC(N2CCC(N(C)S(C)(=O)=O)CC2)CC1 (stereo not drawn) [Example 159f]  CCR2 (Homo sapiens, UniProt P41597)      Criterion met
 4  CNC(=O)[C@H]1CCCN(C2CCN(C(=O)c3ncnc(NCCc4ccc(Cl)c(Cl)c4)c3C)CC2)C1  CCR2 (Homo sapiens, UniProt P41597)      Criterion met
 5  Cc1c(NCc2ccc(C(C)(C)C)cc2)ncnc1C(=O)N1CCCC(N2CCOCC2)CC1 (stereo not drawn)  CCR2 (Homo sapiens, UniProt P41597)  Criterion not met
 6  Cc1c(NCCc2ccc(Cl)cc2)ncnc1C(=O)N1CCC(N2CCC(O)CC2)CC1  CCR2 (Homo sapiens, UniProt P41597)      Criterion met
 7  Cc1nc(NCC2CCN(c3ccccc3)C2)c(C)c(C(=O)N2CCC(N3CCC(N(C)S(C)(=O)=O)CC3)CC2)n1 (stereo not drawn)  CCR2 (Homo sapiens, UniProt P41597)      Criterion met
 8  COC1CCN(C2CCN(C(=O)c3ncnc(NCc4ccc(C(C)(C)C)cc4)c3C)CC2)CC1  CCR2 (Homo sapiens, UniProt P41597)      Criterion met
 9  Cc1c(NCc2cccc(-c3ccccc3)c2)ncnc1C(=O)N1CCC(N2CCC(O)C2)CC1 (stereo not drawn)  CCR2 (Homo sapiens, UniProt P41597)  Criterion not met
10  Cc1c(NCC2CCN(c3ccccc3)C2)ncnc1C(=O)N1CCC(N2CCOCC2)CC1 (stereo not drawn)  CCR2 (Homo sapiens, UniProt P41597)      Criterion met
